assay: total protein half-life in vivo (active degradation + dilution); higher = more stable protein; details: wild type E. coli NCM3722; growth: C-lim chemostat; doubling time 12 h

[
  {
    "Chain": "MRTTSFAKVAALCGLLALSGCASKITQPDKYSGFLNNYSDLKETTSATGKPVLRWVDPSFDQSKYDSIVWNPITYYPVPKPSTQVGQKVLDKILNYTNTEMKEAIAQRKPLVTTAGPRSLIFRGAITGVDTSKEGLQFYEVVPVALVVAGTQMATGHRTMDTRLYFEGELIDAATNKPVIKVVRQGEGKDLNNESTPMAFENIKQVIDDMATDATMFDVNKK",
    "total protein half-life in vivo (h)": 10.3
  },
  {
    "Chain": "MNTDTFMCSSDEKQTRSPLSLYSEYQRMEIEFRAPHIMPTSHWHGQVEVNVPFDGDVEYLINNEKVNINQGHITLFWACTPHQLTDTGTCQSMAIFNLPMHLFLSWPLDKDLINHVTHGMVIKSLATQQLSPFEVRRWQQELNSPNEQIRQLAIDEIGLMLKRFSLSGWEPILVNKTSRTHKNSVSRHAQFYVSQMLGFIAENYDQALTINDVAEHVKLNANYAMGIFQRVMQLTMKQYITAMRINHVRALLSDTDKSILDIALTAGFRSSSRFYSTFGKYVGMSPQQYRKLSQQRRQTFPG [P0ACH8]",
    "total protein half-life in vivo (h)": 4.03
  },
  {
    "Chain": "MMPQSLPDTTTPKRRFRWPTGMPQLVALLLVLLVDSLVAPHFWQVVLQDGRLFGSPIDILNRAAPVALLAIGMTLVIATGGIDLSVGAVMAIAGATTAAMTVAGFSLPIVLLSALGTGILAGLWNGILVAILKIQPFVATLILMVAGRGVAQLITAGQIVTFNSPDLSWFGSGSLLFLPTPVIIAVLTLILFWLLTRKTALGMFIEAVGINIRAAKNAGVNTRIIVMLTYVLSGLCAAIAGIIVAADIRGADANNAGLWLELDAILAVVIGGGSLMGGRFNLLLSVVGALIIQGMNTGILLSGFPPEMNQVVKAVVVLCVLIVQSQRFISLIKGVRSRDKT",
    "total protein half-life in vivo (h)": 8.92
  },
  {
    "Chain": "MMKTVKHLLCCAIAASALISTGVHAASWKDALSSAASELGNQNSTTQEGGWSLASLTNLLSSGNQALSADNMNNAAGILQYCAKQKLASVTDAENIKNQVLEKLGLNSEEQKEDTNYLDGIQGLLKTKDGQQLNLDNIGTTPLAEKVKTKACDLVLKQGLNFIS",
    "total protein half-life in vivo (h)": 3.5
  },
  {
    "Chain": "MSQPLNADQELVSDVVACQLVIKQILDVLDVIAPVEVREKMSSQLKNIDFTNHPAAADPVTMRAIQKAIALIELKFTPQGESH [P0AD10]",
    "total protein half-life in vivo (h)": 8.31
  },
  {
    "Chain": "MSDDNSHSSDTISNKKGFFSLLLSQLFHGEPKNRDELLALIRDSGQNDLIDEDTRDMLEGVMDIADQRVRDIMIPRSQMITLKRNQTLDECLDVIIESAHSRFPVISEDKDHIEGILMAKDLLPFMRSDAEAFSMDKVLRQAVVVPESKRVDRMLKEFRSQRYHMAIVIDEFGGVSGLVTIEDILELIVGEIEDEYDEEDDIDFRQLSRHTWTVRALASIEDFNEAFGTHFSDEEVDTIGGLVMQAFGHLPARGETIDIDGYQFKVAMADSRRIIQVHVKIPDDSPQPKLDE [P0AE78]",
    "total protein half-life in vivo (h)": 10
  },
  {
    "Chain": "MVKKAIVTAMAVISLFTLMGCNNRAEVDTLSPAQAAELKPMPQSWRGVLPCADCEGIETSLFLEKDGTWVMNERYLGAREEPSSFASYGTWARTADKLVLTDSKGEKSYYRAKGDALEMLDREGNPIESQFNYTLEAAQSSLPMTPMTLRGMYFYMADAATFTDCATGKRFMVANNAELERSYLAARGHSEKPVLLSVEGHFTLEGNPDTGAPTKVLAPDTAGKFYPNQDCSSLGQ",
    "total protein half-life in vivo (h)": 10.7
  },
  {
    "Chain": "MNSHNITNESLALALMLVVVAILISHKEKLALEKDILWSVGRAIIQLIIVGYVLKYIFSVDDASLTLLMVLFICFNAAWNAQKRSKYIAKAFISSFIAITVGAGITLAVLILSGSIEFIPMQVIPIAGMIAGNAMVAVGLCYNNLGQRVISEQQQIQEKLSLGATPKQASAILIRDSIRAALIPTVDSAKTVGLVSLPGMMSGLIFAGIDPVKAIKYQIMVTFMLLSTASLSTIIACYLTYRKFYNSRHQLVVTQLKKK",
    "total protein half-life in vivo (h)": 9.93
  },
  {
    "Chain": "MIEILHEYWKPLLWTDGYRFTGVAITLWLLILSVVIGGVLALFLAIGRVSSNKYIQFPIWLFTYIFRGTPLYVQLLVFYSGMYTLEIVKGTEFLNAFFRSGLNCTVLALTLNTCAYTTEIFAGAIRSVPHGEIEAARAYGFSTFKMYRCIILPSALRIALPAYSNEVILMLHSTALAFTATVPDLLKIARDINAATYQPFTAFGIAAVLYLIISYVLISLFRRAEKRWLQHVKPSSTH [P0AEU3]",
    "total protein half-life in vivo (h)": 11.3
  },
  {
    "Chain": "MPLLHLLRQNPVIAAVKDNASLQLAIDSECQFISVLYGNICTISNIVKKIKNAGKYAFIHVDLLEGASNKEVVIQFLKLVTEADGIISTKASMLKAARAEGFFCIHRLFIVDSISFHNIDKQVAQSNPDCIEILPGCMPKVLGWVTEKIRQPLIAGGLVCDEEDARNAINAGVVALSTTNTGVWTLAKKLL",
    "total protein half-life in vivo (h)": 12.1
  },
  {
    "Chain": "MNTFSQVWVFSDTPSRLPELMNGAQALANQINTFVLNDADGAQAIQLGANHVWKLNGKPDDRMIEDYAGVMADTIRQHGADGLVLLPNTRRGKLLAAKLGYRLKAAVSNDASTVSVQDGKATVKHMVYGGLAIGEERIATPYAVLTISSGTFDAAQPDASRTGETHTVEWQAPAVAITRTATQARQSNSVDLDKARLVVSVGRGIGSKENIALAEQLCKAIGAELACSRPVAENEKWMEHERYVGISNLMLKPELYLAVGISGQIQHMVGANASQTIFAINKDKNAPIFQYADYGIVGDAVKILPALTAALAR",
    "total protein half-life in vivo (h)": 8.89
  },
  {
    "Chain": "MNNMNVIIADDHPIVLFGIRKSLEQIEWVNVVGEFEDSTALINNLPKLDAHVLITDLSMPGDKYGDGITLIKYIKRHFPSLSIIVLTMNNNPAILSAVLDLDIEGIVLKQGAPTDLPKALAALQKGKKFTPESVSRLLEKISAGGYGDKRLSPKESEVLRLFAEGFLVTEIAKKLNRSIKTISSQKKSAMMKLGVENDIALLNYLSSVTLSPADKD [P0DMC7]",
    "total protein half-life in vivo (h)": 6.66
  }
]

# credit: the supplement of paper PMC11246515
